system: ATP; assay: switch fluorescence ratio, 500 uM ATP over buffer (Cy3 cluster intensity, sum of 5 cycles each) (fold (ratio)); higher = stronger signal-on switching upon ATP binding; sequences stand for … in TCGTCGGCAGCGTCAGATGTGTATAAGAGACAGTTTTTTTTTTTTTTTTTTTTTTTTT…TC; conditions: aptamer strand: ATP DNA aptamer (quencher-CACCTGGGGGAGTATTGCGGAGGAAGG + anchor), 100 nM annealed; ATP concentration: 500 uM;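 note: ATP exposure 15 min at 22 °C before imaging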
property_name: switch fluorescence ratio
Numbers only.

Record excerpt, results attached:
residues: GAAGGTTCAT
observed_measurement: 0.961
//
residues: CATTAGGCTG
observed_measurement: 1.02
//
residues: GAAGCTTATA
observed_measurement: 1.25

Kindly note: ATP, `TTCCTTATTA` , switch fluorescence ratio value reported: 1.02
